System: Amyloid-β peptide release (Aβ42), HEK cells overexpressing APP (HEK-APP)
Assay: Amyloid-β peptide release (Aβ42) assay, AlphaLISA on supernatant of HEK-APP cells
Assay type: cell-based
Conditions: Homo sapiens, HEK293, 24 h incubation with compound, read-out: Ab42 IC50 Ranges
pIC50: −log10 of the molar value.
measured-quantity: pIC50

compound: Cc1cc(-c2nn3c(C)ncc3o2)ccc1NC(=O)Cc1cccc(C(F)(F)F)c1
recorded-result: 6.00 to 6.30
--
compound: Cc1ncc2oc(-c3ccc(Nc4nccc(NCc5cccc(C(F)(F)F)c5)n4)cc3)nn12
recorded-result: 5.66 to 6.00
--
compound: Cc1ncc2oc(-c3ccc(C(=O)NCc4cccc(Cl)c4Cl)cc3)nn12
recorded-result: 5.66 to 6.00
--
compound: Cc1ncc2sc(C(=O)N(C)Cc3cccc(C(F)(F)F)c3)nn12
recorded-result: 6.00 to 6.30
--
compound: Cc1ncc2oc(-c3ccc(NC(=O)Cc4ccc(OC(F)(F)F)cc4)cc3)nn12
recorded-result: 6.00 to 6.30
--
compound: Cc1ccccc1C1CCCN1C(=O)c1nn2c(C)ncc2s1 (stereo not drawn)
recorded-result: 6.00 to 6.30
--
compound: Cc1ncc2oc(-c3ccc(NC(=O)Nc4ccc(OC(F)(F)F)cc4)cc3)nn12
recorded-result: 5.66 to 6.00
--
compound: Cc1ccc(C)c(CC(=O)Nc2ccc(-c3nn4c(C)ncc4o3)cc2C)c1
recorded-result: 6.30 to 7.00
--
compound: Cc1ncc2oc(-c3ccc(NC(=O)Cc4cccc(Br)c4)cc3)nn12
recorded-result: 6.00 to 6.30
